Molecular target: Recombinant human KIF18A (1-467 His-tagged) protein (Homo sapiens)
Construct: Recombinant human KIF18A (1-467 His-tagged) protein; His
Test: KIF18A Enzyme Assay (microtubule-stimulated ATPase activity, ADP-Glo)
Conditions: 30 nM KIF18A, 30 μg/mL pig microtubules, 75 μM ATP, ADP-Glo luminescence
Description: KIF18A Enzyme Assay: Microtubule-stimulated ATPase activity assay is used to measure KIF18A enzyme activity after treatment with compound. Compounds were 2-fold serially diluted in DMSO (Sigma Inc) over 22-point concentration range. […] Read luminescence using EnVision microplate reader with ultra-luminescence module (Perkin Elmer Inc). […]
PARAMETER: IC50 (nM)

Guide cases for IC50, answers given:
Q) Using the record for Cc1cc(Nc2ncnc3cc([S@](=N)(=O)C4CC4)cc(N4CCC5(CC4)CC5)c23)cc(N2CCC(F)(F)CC2)c1 (single isomer, unassigned) , state its measured IC50.
A) 73

Q) Using the record for `Cc1cc(Nc2ncnc3cc(NS(=O)(=O)CCO)cc(N4CCC5(CC4)CC5)c23)cc(N2CCC(F)(F)CC2)n1` , state its measured IC50.
A) 82

a. Cc1cc(Oc2ncnc3cc(NS(=O)(=O)CCO)cc(N4CCC5(CC4)CC5)c23)cc(N2CCC(F)(F)CC2)c1
b. Cc1cc(Nc2ncnc3cc(NS(=O)(=O)CCO)cc(N4CCC5(CC4)CC5)c23)nc(N2CCC(F)(F)CC2)c1
c. Cc1cc(Nc2ncnc3cc([S@@](=N)(=O)C4CC4)cc(N4CCC5(CC4)CC5)c23)cc(N2CCC(F)(F)CC2)c1 (single isomer, unassigned)
d. Cc1cc(Nc2ncnc3cc(NS(=O)(=O)CCO)cc(N4CCC5(CC4)CC5)c23)cc(N2CCC(F)(F)CC2)c1
Q) Number of compounds to sort: 4. Sort criterion: IC50, ascending. Give me the labels in the order the question wants.
A) d, b, c, a

* * *

Target: Recombinant human KIF18A (1-467 His-tagged) protein (Homo sapiens, UniProt Q8NI77)
Construct: Recombinant human KIF18A (1-467 His-tagged) protein; His
Sequence (Q8NI77 1-467): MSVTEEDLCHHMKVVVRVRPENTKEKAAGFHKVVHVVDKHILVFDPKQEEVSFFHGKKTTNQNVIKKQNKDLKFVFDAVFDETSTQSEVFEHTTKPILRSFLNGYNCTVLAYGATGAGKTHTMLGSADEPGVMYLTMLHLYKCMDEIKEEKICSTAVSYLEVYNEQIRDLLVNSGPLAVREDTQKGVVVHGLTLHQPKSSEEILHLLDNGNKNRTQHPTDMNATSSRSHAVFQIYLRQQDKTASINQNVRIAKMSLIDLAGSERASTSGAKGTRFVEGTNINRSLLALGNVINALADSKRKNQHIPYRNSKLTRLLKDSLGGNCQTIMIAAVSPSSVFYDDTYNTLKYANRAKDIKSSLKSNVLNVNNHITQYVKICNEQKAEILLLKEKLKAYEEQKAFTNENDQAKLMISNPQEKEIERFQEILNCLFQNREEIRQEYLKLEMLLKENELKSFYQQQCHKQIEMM
Sequence (P02550 whole entry partner): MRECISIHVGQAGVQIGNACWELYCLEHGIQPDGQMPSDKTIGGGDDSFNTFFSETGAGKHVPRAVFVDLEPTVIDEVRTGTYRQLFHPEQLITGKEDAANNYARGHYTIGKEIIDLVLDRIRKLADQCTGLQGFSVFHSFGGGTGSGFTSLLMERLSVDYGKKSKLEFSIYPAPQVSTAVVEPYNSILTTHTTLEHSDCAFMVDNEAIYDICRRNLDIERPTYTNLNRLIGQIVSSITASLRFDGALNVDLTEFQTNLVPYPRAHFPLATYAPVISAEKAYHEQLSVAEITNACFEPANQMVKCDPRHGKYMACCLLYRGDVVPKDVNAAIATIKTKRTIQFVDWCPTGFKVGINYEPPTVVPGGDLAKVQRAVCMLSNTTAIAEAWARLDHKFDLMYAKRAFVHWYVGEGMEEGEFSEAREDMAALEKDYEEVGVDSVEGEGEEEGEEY
Sequence (P02554 whole entry partner): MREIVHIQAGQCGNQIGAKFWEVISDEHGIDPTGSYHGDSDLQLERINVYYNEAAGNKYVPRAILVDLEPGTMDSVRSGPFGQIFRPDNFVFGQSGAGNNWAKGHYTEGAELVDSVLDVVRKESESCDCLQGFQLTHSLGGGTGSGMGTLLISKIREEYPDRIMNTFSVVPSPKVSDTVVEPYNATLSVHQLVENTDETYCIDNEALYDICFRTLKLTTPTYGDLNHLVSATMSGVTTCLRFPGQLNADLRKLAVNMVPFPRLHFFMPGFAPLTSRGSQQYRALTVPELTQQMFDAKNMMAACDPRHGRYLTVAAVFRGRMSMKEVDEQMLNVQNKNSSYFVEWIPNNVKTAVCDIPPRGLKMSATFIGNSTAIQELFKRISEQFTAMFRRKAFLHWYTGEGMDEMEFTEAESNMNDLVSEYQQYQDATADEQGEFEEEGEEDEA
Assay: KIF18A Enzyme Assay (microtubule-stimulated ATPase activity, ADP-Glo)
Conditions: 30 nM KIF18A, 30 μg/mL pig microtubules, 75 μM ATP, ADP-Glo luminescence
Source text: KIF18A Enzyme Assay: Microtubule-stimulated ATPase activity assay is used to measure KIF18A enzyme activity after treatment with compound. Compounds were 2-fold serially diluted in DMSO (Sigma Inc) over 22-point concentration range. […] Read luminescence using EnVision microplate reader with ultra-luminescence module (Perkin Elmer Inc). […]
PARAMETER: IC50 (nM)

Q) Using the record for `O=S(=O)(CCO)Nc1cc(N2CCC3(CC2)CC3)c2c(Nc3cccc(OCCC(F)(F)F)c3)ncnc2c1` , state its measured IC50.
A) 61

1. Cc1cc(Nc2ncnc3cc(NS(=O)(=O)CCO)cc(N4CCC5(CC4)CC5)c23)cc(OCCC(F)(F)F)c1
2. Cc1cc(Nc2ncnc3cccc(N4CCC5(CC4)CC5)c23)cc(N2CCC(F)(F)CC2)c1
Q) Of 1 and 2 , whose reported IC50 is the larger number? Indicate your choice by writing its label.
A) 2
(2: 3340 nM, 1: 175 nM)

P. Cc1cc(Nc2ncnc3cc(NS(=O)(=O)CCO)cc(N4CCC5(CC4)CC5)c23)nc(N2CCC(F)(F)CC2)n1
Q. Cc1cc(C)cc(Nc2ncnc3cc(NS(=O)(=O)CCO)cc(N4CCC5(CC4)CC5)c23)c1
Q) Of P and Q , whose reported IC50 is the larger number? Indicate your choice by writing its label.
A) Q

* * *

target: Recombinant human KIF18A (1-467 His-tagged) protein (Homo sapiens, UniProt Q8NI77); construct: Recombinant human KIF18A (1-467 His-tagged) protein; His; test: KIF18A Enzyme Assay (microtubule-stimulated ATPase activity, ADP-Glo); conditions: 30 nM KIF18A, 30 μg/mL pig microtubules, 75 μM ATP, ADP-Glo luminescence
PARAMETER: IC50 (µM)

Q) Using the record for `Cc1cc(Nc2ncnc3cc(S(C)(=O)=O)cc(N4CCC5(CC4)CC5)c23)cc(N2CCC(F)(F)CC2)c1` , state its measured IC50.
A) 0.94

a. Cc1cc(Nc2nc(C)nc3cc(NS(=O)(=O)CCO)cc(N4CCC5(CC4)CC5)c23)cc(N2CCC(F)(F)CC2)c1
b. Cc1cc(Nc2nncc3cc(NS(=O)(=O)CCO)cc(N4CCC5(CC4)CC5)c23)cc(N2CCC(F)(F)CC2)c1
Q) Given a and given b , which shows the smaller recorded IC50? Indicate your choice by writing its label.
A) b
(b: 0.025 µM, a: 0.955 µM)

Provenance of the data: patent US12637445B2
